experiment: in vivo; details: mouse, sc
measurement_type: bioavailability (%)
Numbers only, in %.

Problem: Return bioavailability (reported value) for this compound: CN[C@@H]1[C@H](O)[C@H](NC)[C@H]2O[C@]3(O)[C@H](O[C@@H]2[C@H]1O)O[C@H](C)C[C@H]3NC(=O)Cc1ccc(O)cn1 [Spectinamide 1810]
Solution: 100
